src = ChEMBL document CHEMBL5724914

ASSAY INFO: The drug is tested on WLS-170 corresponding to human gut metagenome with ENA study accession number: PRJEB37062 and ENA sample accession number: ERS12561762 for biotransformation under anaerobic condition. The drug concentrations were measured over 9 timepoints collected between 0 and 24 hours of incubation by liquid-chromatography-coupled mass spectrometry (LC–MS); further: call rule not given here
EXPERIMENTAL CONDITIONS: 2 µM
ATTRIBUTE MEASURED: Bacterial Biotransformation

// solved cases for Bacterial Biotransformation follow
Clc1cccc(Cl)c1N=C1NCCN1	Compound metabolized
CCN(C(C)=O)c1cccc(-c2ccnc3c(C#N)cnn23)c1	Compound metabolized
CCN1CCCC1CNC(=O)c1cc(S(=O)(=O)CC)c(N)cc1OC (stereo not given) [AMISULPRIDE]	Compound metabolized
CC(C)[C@H]1CC[C@H](C(=O)N[C@H](Cc2ccccc2)C(=O)O)CC1 [NATEGLINIDE]	Compound metabolized
CC1Cc2ccccc2N1NC(=O)c1ccc(Cl)c(S(N)(=O)=O)c1 (stereo not given) [INDAPAMIDE]	Compound NOT metabolized

IN: Need Bacterial Biotransformation, item `C[C@@H](c1ncncc1F)[C@](O)(Cn1cncn1)c1ccc(F)cc1F`
OUT: Compound metabolized

IN: Need Bacterial Biotransformation, item CC(=O)O[C@]1(C(C)=O)CC[C@H]2[C@@H]3C=C(C)C4=CC(=O)CC[C@]4(C)[C@H]3CC[C@@]21C [MEGESTROL ACETATE]
OUT: Compound metabolized

IN: Need Bacterial Biotransformation, item Nc1nc(NC2CC2)c2ncn([C@H]3C=C[C@@H](CO)C3)c2n1.Nc1nc(NC2CC2)c2ncn([C@H]3C=C[C@@H](CO)C3)c2n1.O=S(=O)(O)O [ABACAVIR SULFATE]
OUT: Compound metabolized

IN: Need Bacterial Biotransformation, item `O=C([O-])C[C@H](O)C[C@H](O)/C=C/c1c(C2CC2)nc2ccccc2c1-c1ccc(F)cc1.O=C([O-])C[C@H](O)C[C@H](O)/C=C/c1c(C2CC2)nc2ccccc2c1-c1ccc(F)cc1.[Ca+2]`
OUT: Compound NOT metabolized

IN: Need Bacterial Biotransformation, item CN(C)CCOC(c1ccc(Cl)cc1)c1ccccn1.O=C(O)/C=C\C(=O)O (stereo not given) [CARBINOXAMINE MALEATE]
OUT: Compound metabolized

IN: Need Bacterial Biotransformation, item `COC1=C(OC)C(=O)C(CCCCCCCCCCO)=C(C)C1=O`
OUT: Compound NOT metabolized

IN: Need Bacterial Biotransformation, item CC(C)(C)NCC(O)c1cc(Cl)c(N)c(Cl)c1 (stereo not given)
OUT: Compound NOT metabolized

IN: Need Bacterial Biotransformation, item COc1cc2nc(N3CCN(C(=O)C4COc5ccccc5O4)CC3)nc(N)c2cc1OC.CS(=O)(=O)O (stereo not given) [DOXAZOSIN MESYLATE]
OUT: Compound metabolized

IN: Need Bacterial Biotransformation, item CC(C)C[C@H]1C(=O)N2CCC[C@H]2[C@]2(O)O[C@](NC(=O)[C@@H]3C=C4c5cccc6[nH]c(Br)c(c56)C[C@H]4N(C)C3)(C(C)C)C(=O)N12.CS(=O)(=O)O [BROMOCRIPTINE MESYLATE]
OUT: Compound metabolized

IN: Need Bacterial Biotransformation, item COC(=O)C(c1ccccc1)C1CCCCN1 (stereo not given) [METHYLPHENIDATE]
OUT: Compound metabolized
